Each recorded value in this set is attributed to PubChem BioAssay.

Overview of reported composite z-score across a group of compounds:
Target: Torsin-1A (Homo sapiens)
Assay: torsin A binders from cell lysate, primary screen, small-molecule microarray, wild-type, 635/667 nm (AID 1149)
Conditions: COS7 hTOR1A-WT lysate, 635 nm fluorescence, higher = more signal
Answer with a number only.

Take a look at these entries with their results.
{"Compound": "NC(=O)N1C(=O)C2C(C1=O)C1C=C(CCCO)C2C(c2cccs2)N1Cc1cc2c(cc1Br)OCO2 (centres undefined)", "composite z-score": -0.164}
{"Compound": "C=CCOC(=O)[C@@H]1[C@H]2C(=O)O[C@H](c3ccccc3)[C@H](c3ccccc3)N2[C@H](c2ccc(OCCOC(=O)[C@H]3C[C@H]4C(=O)N[C@@H](CCCC[N+](C)(C)C)C(=O)N4[C@H]3c3ccc(O)cc3)cc2)[C@@]12C(=O)Nc1ccc(I)cc12", "composite z-score": 0.636}
{"Compound": "O=C1O[C@@H](c2ccccc2)[C@@H](c2ccccc2)N2[C@@H](c3ccc(O)cc3)[C@]3(C(=O)Nc4ccc(C#CC5=CCCCC5)cc43)[C@@H](C(=O)N3CCN(c4ncccn4)CC3)[C@H]12", "composite z-score": 0.6}
{"Compound": "CCOC(=O)C1=CC[C@@H](c2ccc([N+](=O)[O-])cc2)N(S(=O)(=O)c2ccc(C)cc2)[C@H]1c1ccccc1", "composite z-score": 0.149}
{"Compound": "CO[C@H]1O[C@H](CO)[C@@H](OC(=O)Nc2ccc(Oc3ccccc3)cc2)[C@H](OC(=O)Nc2ccccc2-c2ccccc2)[C@@H]1OC(=O)Nc1ccccc1-c1ccccc1", "composite z-score": -0.21}
{"Compound": "COC1(C)CN(Cc2ccccc2Br)[C@H](/C=C/c2ccccc2)[C@H](Cc2ccccc2)O1 (some centres undefined)", "composite z-score": -0.558}
{"Compound": "CC=CC(O)C1C=CC2C(=O)N(c3ccccc3)C(=O)C2N1Nc1ccc([N+](=O)[O-])cc1 (centres undefined)", "composite z-score": 0.463}
{"Compound": "C=CC[C@]12N=C(c3ccc(OCCCO)cc3)O[C@H]1c1ccccc1N(C)C2=O", "composite z-score": -0.0323}
{"Compound": "O=C1OC[C@@H](c2ccccc2)N2CC(/C=C/c3ccccc3)=CC12 (some centres undefined)", "composite z-score": -0.872}
{"Compound": "CCOC(=O)C[C@H]1[C@H](OC(=O)Cc2ccc3c(c2)OCO3)[C@@H](NC(=O)C2CCCCC2)c2cc(OCCCO)ccc2N1C(=O)c1ccc2ccccc2n1", "composite z-score": 0.392}

What value of composite z-score has been reported for the following compound? CC(C)N1C(=O)[C@@]2(c3ccc([N+](=O)[O-])cc3)CC(=O)N(C3CCCCC3)[C@@H]2c2ccc(CO)cc21
-0.36

What value of composite z-score has been reported for the following compound? O=C1c2ccccc2[C@](Cc2ccccc2I)(C(=O)NCCN2CCOCC2)[C@H](c2ccc(CO)cc2)N1Cc1ccccc1
0.0373

What value of composite z-score has been reported for the following compound? O=C(O)[C@H]1C[C@H]2C(=O)N3CCC[C@H]3C(=O)N2[C@H]1c1cccc(OCCO)c1
0.847

What value of composite z-score has been reported for the following compound? C=CC[C@@]1(C(=O)N2CCCCC2)N=C(c2ccc(OCCCO)cc2)O[C@@H]1c1ccccc1
0.521

====

Target: Follistatin (Homo sapiens) (UniProt P19883)
Sequence (P19883 whole entry, looked up): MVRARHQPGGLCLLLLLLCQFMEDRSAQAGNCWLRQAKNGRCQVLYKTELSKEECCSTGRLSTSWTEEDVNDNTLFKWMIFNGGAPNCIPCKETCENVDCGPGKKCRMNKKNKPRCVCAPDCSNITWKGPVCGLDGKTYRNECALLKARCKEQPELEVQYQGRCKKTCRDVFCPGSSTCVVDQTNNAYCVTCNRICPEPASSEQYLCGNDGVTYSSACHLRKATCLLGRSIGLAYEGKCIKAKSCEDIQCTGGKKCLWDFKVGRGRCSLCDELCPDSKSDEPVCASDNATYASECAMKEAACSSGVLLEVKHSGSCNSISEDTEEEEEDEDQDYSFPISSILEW
Test: follistatin binders on small-molecule microarrays, primary screen, biochemical, small-molecule microarray, 635/667 nm fluorescence (AID 1132)
Settings: FST binding, 635 nm fluorescence, higher = more signal
Overview of reported composite z-score across a group of molecules:

Take a look at these entries with their results.
{"Sample smiles": "CC(C)N1C(=O)[C@@]2(c3ccc([N+](=O)[O-])cc3)CC(=O)N(C3CCCCC3)[C@@H]2c2ccc(CO)cc21", "Recorded measurement": 1.03}
{"Sample smiles": "COC(=O)[C@@]1(Cc2ccc(OC)cc2)[C@H]2c3cc(C(=O)N(C)C)n(CCc4c[nH]c5ccc(O)cc45)c3C[C@H]2CN1C(=O)c1ccccc1", "Recorded measurement": 1.01}
{"Sample smiles": "CC(C)CNC(=O)[C@@H]1c2ccccc2C(=O)N(Cc2cc(F)cc(C(F)(F)F)c2)[C@H]1c1ccc(CO)cc1", "Recorded measurement": 1.02}
{"Sample smiles": "[N-]=[N+]=Nc1ccccc1[C@@H]1OC(c2ccc(OCCCO)cc2)=N[C@]1(CCS(=O)(=O)c1ccccc1)C(=O)NCCN1CCOCC1", "Recorded measurement": 1.14}
{"Sample smiles": "COCCOC(=O)N1C(=O)[C@@]2(c3cc(C#CC4=CCCCC4)ccc31)[C@H](c1ccccc1OCCO)N1[C@H](c3ccccc3)[C@H](c3ccccc3)OC(=O)[C@H]1[C@@H]2C(=O)N1CCc2cc(OC)c(OC)cc2C1", "Recorded measurement": 1.28}

Next molecule, composite z-score to be filled in.
What value of composite z-score has been reported for the following molecule? CCOC(=O)C[C@H]1[C@H](OC(=O)c2ccc(-c3ccccc3)cc2)[C@@H](NC(=O)C2CCCCC2)c2cc(OCCCO)ccc2N1C(=O)c1ccccc1
0.461

====

Overview of reported composite z-score across a group of compounds:
Biological target: Fibroblast growth factor 2 (Homo sapiens) (UniProt P09038)
Sequence (P09038 whole entry, looked up): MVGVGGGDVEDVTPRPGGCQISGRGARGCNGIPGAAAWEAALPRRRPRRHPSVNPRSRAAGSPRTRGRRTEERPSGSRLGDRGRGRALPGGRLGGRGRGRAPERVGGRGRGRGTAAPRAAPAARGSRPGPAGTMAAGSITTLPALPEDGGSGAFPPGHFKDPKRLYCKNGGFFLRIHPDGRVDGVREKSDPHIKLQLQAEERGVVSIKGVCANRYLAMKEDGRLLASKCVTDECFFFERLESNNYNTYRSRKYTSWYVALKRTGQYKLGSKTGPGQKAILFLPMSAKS
Assay: FGF2 binders on small-molecule microarrays, primary screen, biochemical, small-molecule microarray, 635/667 nm fluorescence (AID 1133)
Conditions: small-molecule microarray binding, FGF2, fluorescence 635/667; higher = more signal
Answer with a number only.

{"Sample smiles": "CCOC(=O)[C@H]1C/C=C/C[C@H](C(=O)OCC)C(=O)O[C@H]2[C@@H](OC)O[C@H](CO)[C@@H](OC(=O)CCc3ccccc3)[C@@H]2OC1=O", "composite z-score": -0.924}
{"Sample smiles": "NCCCCCNC(=O)[C@@H]1C[C@@H]2C(=O)N[C@@H](CCCCN)C(=O)N2[C@@H]1c1cccc(OCCO)c1", "composite z-score": 1.25}
{"Sample smiles": "CC(C)(C)OC(=O)CC[C@]1(C(=O)O)N=C(c2ccc(OCCCO)cc2)O[C@H]1c1ccccc1", "composite z-score": -0.236}

Next compound, composite z-score to be filled in.
What value of composite z-score has been reported for the following compound? CCOC(=O)C1=CC[C@@H](c2cc(Cl)ccc2Cl)N(S(=O)(=O)c2ccc(C)cc2)[C@H]1c1ccc(OC)cc1
-0.413

====

Target: Albumin (Bos taurus) (UniProt P02769)
Sequence (P02769 whole entry, looked up): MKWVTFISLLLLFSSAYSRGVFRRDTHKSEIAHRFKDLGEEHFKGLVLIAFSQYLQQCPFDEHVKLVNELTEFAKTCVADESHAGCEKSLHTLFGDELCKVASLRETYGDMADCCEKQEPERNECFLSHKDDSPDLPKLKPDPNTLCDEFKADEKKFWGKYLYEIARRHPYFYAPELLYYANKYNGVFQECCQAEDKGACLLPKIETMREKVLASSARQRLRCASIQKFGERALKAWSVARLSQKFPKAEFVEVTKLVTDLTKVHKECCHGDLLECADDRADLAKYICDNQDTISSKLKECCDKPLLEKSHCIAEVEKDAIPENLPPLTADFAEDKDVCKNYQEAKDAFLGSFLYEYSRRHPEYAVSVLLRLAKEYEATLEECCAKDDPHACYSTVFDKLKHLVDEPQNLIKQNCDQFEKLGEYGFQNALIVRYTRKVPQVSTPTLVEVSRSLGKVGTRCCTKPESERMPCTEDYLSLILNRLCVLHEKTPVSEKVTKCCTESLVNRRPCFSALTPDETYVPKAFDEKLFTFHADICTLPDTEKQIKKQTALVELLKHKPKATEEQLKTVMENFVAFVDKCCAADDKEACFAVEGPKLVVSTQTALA
Assay: bovine serum albumin binders on microarray, profiling panel, artefact control for SMM control protein annotation, biochemical, small-molecule microarray, Alexa647 label, 635/667 nm fluorescence (AID 1118);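 further: score merges 667 nm emission intensity and signal-to-noise per printed compound spot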
Settings: BSA-A647 binding, fluorescence 635 nm, higher = more signal
Parameter measured: composite z-score
Answer with a number only.

Take a look at these entries with their results.
{"Compound": "CN(C)CCCNC(=O)[C@@]1(c2ccc([N+](=O)[O-])cc2)CC(=O)N(CC23CC4CC(CC(C4)C2)C3)[C@@H]1c1ccc(CO)cc1", "Subject of test": "Albumin (Bos taurus) (UniProt P02769)", "composite z-score": 0.0561}
{"Compound": "COC(=O)[C@H](Cc1ccccc1)N1CC(/C=C/C2CC2)=C[C@@H]1[C@@H](O)Cc1ccccc1", "Subject of test": "Albumin (Bos taurus) (UniProt P02769)", "composite z-score": 0.506}
{"Compound": "Cc1ccc(S[C@]2(C(=O)NC3CC3)CC(=O)N(Cc3ccccc3Cl)[C@@H]2c2ccc(CO)cc2I)cc1", "Subject of test": "Albumin (Bos taurus) (UniProt P02769)", "composite z-score": 0.257}

What value of composite z-score has been reported for the following compound? CCOc1cc(C(O)C2C=CC3C(=O)N(C)C(=O)C3N2N2CCCCC2)ccc1O (centres undefined)
0.534

====

Tested on: XIP peptide (Xip251-270)
Assay: small-molecule binders of XIP peptide, primary screen, biochemical, small-molecule microarray, fluorescence 635/667 nm, 0.5 µg/mL protein (AID 1183)
Details: small-molecule microarray binding, fluorescence 635 nm; higher = more signal
Decide using composite z-score: a value greater than or equal to 0.8 is rule met, a smaller one is rule not met.

{"Compound": "Cc1ccc(S[C@]2(C(=O)NC(C)C)CC(=O)N(C3Cc4ccccc4C3)[C@@H]2c2ccc(CO)cc2I)cc1", "Class name": "rule met"}

Quick check, composite z-score >= 0.8? O=C1O[C@@H](c2ccccc2)[C@@H](c2ccccc2)N2[C@@H](c3ccc(O)cc3)[C@]3(C(=O)Nc4ccc(C#CC5=CCCCC5)cc43)[C@@H](C(=O)N3CCN(c4ncccn4)CC3)[C@H]12
rule not met

Quick check, composite z-score >= 0.8? C=CCC(OC(C)=O)[C@@H]1[C@@H](N(Cc2cc3ccccc3o2)C(=O)c2ccc(C)cc2)c2cc(OCCCO)ccc2N1C(=O)Cc1ccc2ccccc2c1 (stereo partly specified)
rule not met

Quick check, composite z-score >= 0.8? [N-]=[N+]=NCc1ccccc1C[C@@]1(C(=O)NCCN2CCOCC2)N=C(c2ccc(OCCCO)cc2)O[C@@H]1c1ccccc1N=[N+]=[N-]
rule not met

Quick check, composite z-score >= 0.8? COC(=O)C(CC#Cc1ccc2c(c1)[C@]1(C(=O)N2)[C@H](C(=O)O)[C@H]2C(=O)O[C@H](c3ccccc3)[C@H](c3ccccc3)N2[C@@H]1c1ccccc1OCCO)C(=O)OC
rule met

Quick check, composite z-score >= 0.8? COC(=O)[C@@]1(Cc2ccccc2)[C@H]2c3cc(C(=O)N4CCCC4)n(Cc4ccsc4Br)c3C[C@H]2CN1C(=O)c1ccccc1
rule not met
